- testParameters: in n-propanol, 288.15 K
propertyMeasured: solubility (mole fraction)
Answer with the value's number alone.

Task: State its solubility (mole fraction): "Oc1ccc(OCc2ccccc2)cc1"
Result: 0.0352

###

- testParameters: in ethyl acetate, 283.15 K
propertyMeasured: solubility (mole fraction)

Task: State its solubility (mole fraction): "Oc1ccc(OCc2ccccc2)cc1"
Result: 0.0773

###

- testParameters: in water, 303.15 K
propertyMeasured: solubility (mole fraction)
Answer with the value's number alone.

Task: State its solubility (mole fraction): "Oc1ccc(OCc2ccccc2)cc1"
Result: 1.7e-05

###

- testParameters: in methanol, 308.15 K
propertyMeasured: solubility (mole fraction)
Answer with the value's number alone.

Task: State its solubility (mole fraction): "Oc1ccc(OCc2ccccc2)cc1"
Result: 0.111

###

- testParameters: in water, 298.15 K
propertyMeasured: solubility (mole fraction)
Answer with the value's number alone.

Task: State its solubility (mole fraction): "Oc1ccc(OCc2ccccc2)cc1"
Result: 1.3e-05

###

- testParameters: in isopropanol, 308.15 K
propertyMeasured: solubility (mole fraction)
Answer with the value's number alone.

Task: State its solubility (mole fraction): "Oc1ccc(OCc2ccccc2)cc1"
Result: 0.0921

###

- testParameters: in n-hexane, 288.15 K
propertyMeasured: solubility (mole fraction)
Answer with the value's number alone.

Task: State its solubility (mole fraction): "Oc1ccc(OCc2ccccc2)cc1"
Result: 0.000453

###

- testParameters: in n-octanol, 293.15 K
propertyMeasured: solubility (mole fraction)
Answer with the value's number alone.

Task: State its solubility (mole fraction): "Oc1ccc(OCc2ccccc2)cc1"
Result: 0.0136

###

- testParameters: in n-octanol, 288.15 K
propertyMeasured: solubility (mole fraction)
Answer with the value's number alone.

Task: State its solubility (mole fraction): "Oc1ccc(OCc2ccccc2)cc1"
Result: 0.0101

###

- testParameters: in n-octanol, 313.15 K
propertyMeasured: solubility (mole fraction)
Answer with the value's number alone.

Task: State its solubility (mole fraction): "Oc1ccc(OCc2ccccc2)cc1"
Result: 0.0355

###

- testParameters: in 1,4-dioxane, 308.15 K
propertyMeasured: solubility (mole fraction)
Answer with the value's number alone.

Task: State its solubility (mole fraction): "Oc1ccc(OCc2ccccc2)cc1"
Result: 0.342

###

- testParameters: in n-hexane, 283.15 K
propertyMeasured: solubility (mole fraction)
Answer with the value's number alone.

Task: State its solubility (mole fraction): "Oc1ccc(OCc2ccccc2)cc1"
Result: 0.000327

###

- testParameters: in cyclohexane, 293.15 K
propertyMeasured: solubility (mole fraction)
Answer with the value's number alone.

Task: State its solubility (mole fraction): "Oc1ccc(OCc2ccccc2)cc1"
Result: 0.00156

###

- testParameters: in ethyl acetate, 298.15 K
propertyMeasured: solubility (mole fraction)
Answer with the value's number alone.

Task: State its solubility (mole fraction): "Oc1ccc(OCc2ccccc2)cc1"
Result: 0.293

###

- testParameters: in n-butanol, 303.15 K
propertyMeasured: solubility (mole fraction)
Answer with the value's number alone.

Task: State its solubility (mole fraction): "Oc1ccc(OCc2ccccc2)cc1"
Result: 0.0543

###

- testParameters: in n-butanol, 293.15 K
propertyMeasured: solubility (mole fraction)
Answer with the value's number alone.

Task: State its solubility (mole fraction): "Oc1ccc(OCc2ccccc2)cc1"
Result: 0.0346

###

- testParameters: in n-octanol, 303.15 K
propertyMeasured: solubility (mole fraction)
Answer with the value's number alone.

Task: State its solubility (mole fraction): "Oc1ccc(OCc2ccccc2)cc1"
Result: 0.0224

###

- testParameters: in isopropanol, 303.15 K
propertyMeasured: solubility (mole fraction)

Task: State its solubility (mole fraction): "Oc1ccc(OCc2ccccc2)cc1"
Result: 0.0736

###

- testParameters: in ethyl acetate, 303.15 K
propertyMeasured: solubility (mole fraction)
Answer with the value's number alone.

Task: State its solubility (mole fraction): "Oc1ccc(OCc2ccccc2)cc1"
Result: 0.399

###

- testParameters: in cyclohexane, 283.15 K
propertyMeasured: solubility (mole fraction)
Answer with the value's number alone.

Task: State its solubility (mole fraction): "Oc1ccc(OCc2ccccc2)cc1"
Result: 0.000542

###

- testParameters: in ethyl acetate, 288.15 K
propertyMeasured: solubility (mole fraction)
Answer with the value's number alone.

Task: State its solubility (mole fraction): "Oc1ccc(OCc2ccccc2)cc1"
Result: 0.129

###

- testParameters: in methanol, 313.15 K
propertyMeasured: solubility (mole fraction)
Answer with the value's number alone.

Task: State its solubility (mole fraction): "Oc1ccc(OCc2ccccc2)cc1"
Result: 0.136

###

- testParameters: in cyclohexane, 303.15 K
propertyMeasured: solubility (mole fraction)
Answer with the value's number alone.

Task: State its solubility (mole fraction): "Oc1ccc(OCc2ccccc2)cc1"
Result: 0.00396

###

- testParameters: in 1,4-dioxane, 288.15 K
propertyMeasured: solubility (mole fraction)
Answer with the value's number alone.

Task: State its solubility (mole fraction): "Oc1ccc(OCc2ccccc2)cc1"
Result: 0.0903

###

- testParameters: in methanol, 298.15 K
propertyMeasured: solubility (mole fraction)
Answer with the value's number alone.

Task: State its solubility (mole fraction): "Oc1ccc(OCc2ccccc2)cc1"
Result: 0.0739

###

- testParameters: in ethanol, 293.15 K
propertyMeasured: solubility (mole fraction)
Answer with the value's number alone.

Task: State its solubility (mole fraction): "Oc1ccc(OCc2ccccc2)cc1"
Result: 0.0484

###

- testParameters: in ethanol, 288.15 K
propertyMeasured: solubility (mole fraction)
Answer with the value's number alone.

Task: State its solubility (mole fraction): "Oc1ccc(OCc2ccccc2)cc1"
Result: 0.0396

###

- testParameters: in 1,4-dioxane, 313.15 K
propertyMeasured: solubility (mole fraction)

Task: State its solubility (mole fraction): "Oc1ccc(OCc2ccccc2)cc1"
Result: 0.435

###

- testParameters: in n-hexane, 313.15 K
propertyMeasured: solubility (mole fraction)

Task: State its solubility (mole fraction): "Oc1ccc(OCc2ccccc2)cc1"
Result: 0.00313

###

- testParameters: in ethanol, 303.15 K
propertyMeasured: solubility (mole fraction)
Answer with the value's number alone.

Task: State its solubility (mole fraction): "Oc1ccc(OCc2ccccc2)cc1"
Result: 0.0735

###

- testParameters: in n-hexane, 298.15 K
propertyMeasured: solubility (mole fraction)
Answer with the value's number alone.

Task: State its solubility (mole fraction): "Oc1ccc(OCc2ccccc2)cc1"
Result: 0.00108

###

- testParameters: in cyclohexane, 288.15 K
propertyMeasured: solubility (mole fraction)

Task: State its solubility (mole fraction): "Oc1ccc(OCc2ccccc2)cc1"
Result: 0.000933

###

- testParameters: in cyclohexane, 308.15 K
propertyMeasured: solubility (mole fraction)
Answer with the value's number alone.

Task: State its solubility (mole fraction): "Oc1ccc(OCc2ccccc2)cc1"
Result: 0.0058

###

- testParameters: in isopropanol, 313.15 K
propertyMeasured: solubility (mole fraction)
Answer with the value's number alone.

Task: State its solubility (mole fraction): "Oc1ccc(OCc2ccccc2)cc1"
Result: 0.116

###

- testParameters: in methanol, 303.15 K
propertyMeasured: solubility (mole fraction)
Answer with the value's number alone.

Task: State its solubility (mole fraction): "Oc1ccc(OCc2ccccc2)cc1"
Result: 0.0908

###

- testParameters: in ethyl acetate, 313.15 K
propertyMeasured: solubility (mole fraction)
Answer with the value's number alone.

Task: State its solubility (mole fraction): "Oc1ccc(OCc2ccccc2)cc1"
Result: 0.632

###

- testParameters: in isopropanol, 283.15 K
propertyMeasured: solubility (mole fraction)
Answer with the value's number alone.

Task: State its solubility (mole fraction): "Oc1ccc(OCc2ccccc2)cc1"
Result: 0.0317

###

- testParameters: in acetonitrile, 283.15 K
propertyMeasured: solubility (mole fraction)
Answer with the value's number alone.

Task: State its solubility (mole fraction): "Oc1ccc(OCc2ccccc2)cc1"
Result: 0.036

###

- testParameters: in acetonitrile, 303.15 K
propertyMeasured: solubility (mole fraction)

Task: State its solubility (mole fraction): "Oc1ccc(OCc2ccccc2)cc1"
Result: 0.0821

###

- testParameters: in ethyl acetate, 293.15 K
propertyMeasured: solubility (mole fraction)
Answer with the value's number alone.

Task: State its solubility (mole fraction): "Oc1ccc(OCc2ccccc2)cc1"
Result: 0.201

###

- testParameters: in n-propanol, 293.15 K
propertyMeasured: solubility (mole fraction)
Answer with the value's number alone.

Task: State its solubility (mole fraction): "Oc1ccc(OCc2ccccc2)cc1"
Result: 0.0428

###

- testParameters: in acetonitrile, 308.15 K
propertyMeasured: solubility (mole fraction)
Answer with the value's number alone.

Task: State its solubility (mole fraction): "Oc1ccc(OCc2ccccc2)cc1"
Result: 0.101

###

- testParameters: in n-propanol, 308.15 K
propertyMeasured: solubility (mole fraction)
Answer with the value's number alone.

Task: State its solubility (mole fraction): "Oc1ccc(OCc2ccccc2)cc1"
Result: 0.0794

###

- testParameters: in 1,4-dioxane, 298.15 K
propertyMeasured: solubility (mole fraction)
Answer with the value's number alone.

Task: State its solubility (mole fraction): "Oc1ccc(OCc2ccccc2)cc1"
Result: 0.19

The values you see were collected from BigSolDB 2.1.
